B1: CPN1 (parent)
chain: RGVRRTASTPTPDDKLFQKLAKVY

- Variants of: B1
- Assay Info: protein stability index of a GFP-peptide fusion (GPS, HEK-293T) (PSI 1-6); higher = more stable;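 further: lentivirally expressed fusions sorted by FACS into six bins by GFP to DsRed ratio, PSI derived from sequencing read proportions per bin multiplied by bin number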
- Experimental Context: c terminus: a fixed tail appended
Assign class by protein stability index: not lower than 2 means Satisfied; lower than 2 means Not satisfied.

Previously resolved entries follow.
> print(dat)
   mutations        cat
1       Y24E  Satisfied
2        S8W  Satisfied
3       F17K  Satisfied

Quick check, protein stability index >= 2? `A7Q`
Satisfied

Quick check, protein stability index >= 2? `A21T`
Not satisfied

Quick check, protein stability index >= 2? `T9N`
Not satisfied

Quick check, protein stability index >= 2? `L16V`
Satisfied

Quick check, protein stability index >= 2? `L20S`
Satisfied

Quick check, protein stability index >= 2? `T6H`
Not satisfied

Quick check, protein stability index >= 2? `G2M`
Not satisfied
